Method: chemical genetic growth profiling, strain panel (AID 1159580);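 also: tested at 20 µM; growth read once vehicle control cultures reached saturation at 30 °C; 1 = growth at the plate median or of vehicle wells; lower values mean less growth of the strain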
Condition Label: S. cerevisiae deletion strains, growth OD, locus YOR231W, strain MKK1, active compounds read low
Screen size: about 5,500 compounds; about 2,000 (36%) were called active. About 18% were inconclusive and are not listed. The list shows a part of the results.
Observable: normalized growth
Output spec: single numeric token, no unit.

## Input What value of normalized growth has been recorded for this entry: CC(=O)Nc1ccc(S(=O)(=O)Nc2ccc([N+](=O)[O-])cc2)cc1
## Output 0.989

## Input Likewise for C=C(NC(=O)C(=C)NC(=O)c1csc(C2=NC3c4csc(n4)C4NC(=O)c5csc(n5)C(C(C)(O)C(C)O)NC(=O)C5CSC(=N5)C(=CC)NC(=O)C(C(C)O)NC(=O)c5csc(n5)C3(CC2)NC(=O)C(C)NC(=O)C(=C)NC(=O)C(C)NC(=O)C(C(C)CC)NC2C=Cc3c(C(C)O)cc(nc3C2O)C(=O)OC4C)n1)C(N)=O (stereo not given) ?
## Output 0.981

## Input Note, next up: COc1ccccc1OCCNCC(O)COc1cccc2[nH]c3ccccc3c12 (stereo not given)
## Output 0.999

## Input Query C1CCN2C[C@@H]3C[C@H](CN4CCCC[C@@H]34)[C@H]2C1 next
## Output 1.03

## Input Also need CC(=O)Nc1ccc(/C=C/[N+](=O)[O-])cc1 , thanks.
## Output 0.786

## Input Nc1ccc(S(=O)(=O)Nc2ccccn2)cc1 ?
## Output 0.986

## Input Entry CSc1ccc(/C=C/[N+](=O)[O-])cc1 please
## Output 0.133

## Input Same for O=C(Nc1ccc(N2CCOCC2)cc1)c1ccc(-n2cccn2)cc1
## Output 0.949

## Input Next record, please: Nc1ncn([C@@H]2O[C@H](CO)[C@@H](O)[C@H]2O)c(=O)n1
## Output 0.974

## Input Thanks! And Nc1ccc(C(=O)NCC(=O)O)cc1 ?
## Output 0.97

## Input Repeat for the following molecule: CC(=O)Nc1ccc(S(=O)(=O)c2ccc(NC(C)=O)cc2)cc1
## Output 1.05

## Input Also CC(C)c1ccc(NC(=S)NC(=O)c2ccccc2)cc1 ?
## Output 0.911

## Input Here is the next molecule: Oc1c(Br)cc(Br)c2cccnc12
## Output 0.109

## Input Next record, please: CC(C)(O/N=C(/C(=O)N[C@@H]1C(=O)N2C(C(=O)[O-])=C(C[n+]3ccccc3)CSC12)c1csc(N)n1)C(=O)O (stereo not given in full)
## Output 1.02

## Input Would you kindly repeat that for Oc1c(Cl)cc(Cl)c2cccnc12 ?
## Output 0.105

## Input Param item: Cc1cc(Br)ccc1-n1c(Sc2c([N+](=O)[O-])cc(C(F)(F)F)cc2[N+](=O)[O-])nc2ccccc2c1=O
## Output 0.955

## Input Entry to check: O=C(CCNNC(=O)c1ccncc1)NCc1ccccc1
## Output 0.97

## Input Moving on to CC(=O)O[C@@H]1C[C@@]2(C)[C@H](c3ccoc3)C[C@H]3O[C@]32[C@]2(C)C(=O)C(O)=C3C(C)(C)C(=O)C=C[C@]3(C)C12 (stereo not given in full)
## Output 0.918

## Input Can you check C=C(C)C1CC=C(CO)CC1 (stereo not given) next?
## Output 1.05

## Input Would you kindly repeat that for Oc1c(I)cc(Cl)c2cccnc12 ?
## Output 0.122

Recorded values, source PubChem BioAssay AID1159580.
